Test system: MDA-MB-231 breast
Experiment: NCI-60 one-dose screen, 48 h (100 = growth as untreated, 0 = no growth, -100 = all killed)
Details: 10 µM unless noted
Compounds without any hit were thinned out: in the full panel of roughly 83,000, 20% have a hit.
# cutoff 90% applies to growth; >= gives Satisfied, < gives Not satisfied

>>> category_label("COc1ccc2nc(-c3ccc(OC)c(OC)c3)cc(-c3nnc(SCC(=O)Nc4ccc(C(C)=O)cc4)o3)c2c1")
"Satisfied"
>>> category_label("COc1cc2nc3c(=O)n(-c4ccc(C#N)cc4)cnn3c(=O)c2cc1OC")
"Satisfied"
>>> category_label("CC(C)(C)c1nc2c(s1)c1nc(N)ncc1c1ccc(NS(=O)(=O)c3c(F)cccc3F)c(F)c12")
"Not satisfied"
>>> category_label("O=C1Nc2ccc(Br)cc2/C1=N\\N=C/c1cn(Cc2ccccc2)c2ccccc12")
"Satisfied"
>>> category_label("COc1ccc(/C=C/C(=O)c2ccc(NC(=O)CSc3nnc(-c4ccc(OC)c(OC)c4)n3-c3ccccc3)cc2)cc1")
"Not satisfied"
>>> category_label("C#CCOC(=O)[C@]1(C)CCC[C@]2(C)[C@H]3C[C@H]4C(C(C)C)=C[C@]3(CC[C@H]21)[C@@H]1C(=O)CCC(=O)[C@@H]14")
"Not satisfied"
>>> category_label("C=CCn1c(CN2CCN(c3cc4c(cc3F)c(=O)c(C(=O)O)cn4C3CC3)CC2)n[nH]c1=S")
"Satisfied"

---

Quick reference: growth of the listed items.
System: MALME-3M melanoma
Assay: NCI-60 one-dose screen, 48 h (100 = growth as untreated, 0 = no growth, -100 = all killed)
Conditions: 10 µM unless noted
About 83,000 compounds went through this panel and 20% of them were active in at least one assay; those are over-represented in the sample as a whole.
value.type: growth (%)

>>> measured_number("OCCNc1nc(NCCO)nc(Nc2ccc(C3=NN(c4ccc(Cl)cc4)C(c4ccc(Cl)cc4)C3)cc2)n1 (stereo not given)")
70.1
>>> measured_number("COc1cccc(C(=O)OCCn2nc3c4c(cccc42)C(=O)c2ccccc2-3)c1O")
62.6
>>> measured_number("CN1CCN(CC#CCOC(=O)CNC(=O)[C@]23CCC(C)(C)C[C@H]2C2=CC[C@@H]4[C@@]5(C)CC[C@H](O)C(C)(C)[C@@H]5CC[C@@]4(C)[C@]2(C)CC3)CC1")
92.5
>>> measured_number("C=CCn1c(CN2CCN(c3cc4c(cc3F)c(=O)c(C(=O)O)cn4C3CC3)CC2)n[nH]c1=S")
85.4
>>> measured_number("O=C(Nc1nc2ccc(C(F)(F)F)cc2s1)c1cc(Cl)ccc1O")
-16.6
>>> measured_number("COC(=O)c1ccc2c(c1)NC(=O)[C@@H]1CCCN21")
105
>>> measured_number("O=C(NCc1ccccc1)c1ccc2c(c1)NC(=O)[C@@H]1CCCN21")
92.2
>>> measured_number("FC(F)(F)c1ccc2c(Nc3cccc(C4CC(c5ccccc5)=NN4c4ccc(Cl)cc4)c3)ccnc2c1 (stereo not given)")
83
>>> measured_number("COc1ccccc1Nc1nnc(-c2ccc(Cl)cc2)o1")
46.3
>>> measured_number("N#CCNc1ccc(C(=O)O)cc1")
105

---

Test system: A498 renal
Experiment: NCI-60 one-dose screen, 48 h
Conditions: 10 µM unless noted
This is part of a sample that, as a whole, favours compounds with a hit. Of some 83,000 tested, about 20% had one in any assay. Active and inactive are the calls of the source. The calls were made as follows: active = growth percent below 10; inactive = the rest.
Labels: active, inactive

>>> category_label("O=C1CS/C(=N/c2nnc(-c3ccc(O)cc3)s2)N1")
"inactive"
>>> category_label("C=C1C(=O)O[C@H]2[C@H]1CC/C(COC(=O)CCCCCCC(=O)OC/C1=C/CC[C@@]3(C)O[C@H]3[C@H]3OC(=O)C(=C)[C@@H]3CC1)=C\\CC[C@@]1(C)O[C@@H]21")
"inactive"
>>> category_label("Cc1cc(C)cc(Nc2nccc(-c3c(-c4ccc(F)cc4)ncn3C3CCNCC3)n2)c1")
"inactive"
>>> category_label("Clc1ccc2c(NCCCNC3CCCCC3)ccnc2c1")
"inactive"
>>> category_label("O=CN1N=C(c2ccc3c(c2)OCO3)CC1c1cccc(Nc2ccnc3cc(C(F)(F)F)ccc23)c1 (centres undefined)")
"inactive"
>>> category_label("N#Cc1c(-c2ccc(F)cc2)nc(N/N=C/c2cccc(O)c2)nc1N1CCOCC1")
"inactive"
>>> category_label("Cn1c2ccccc2c2c(OC(=O)c3ccccc3)c3c(nc21)-c1ccccc1C3")
"inactive"
>>> category_label("Nc1c(C(=O)Nc2ccccn2)sc2nc3c(cc12)C(=O)CCC3")
"active"
>>> category_label("O=c1c2ccccc2oc2ccc(OCCCCCN3CCCCCC3)cc12")
"inactive"

---

Entries and their measured growth follow.
Test system: NCI-H23 lung
Assay: NCI-60 one-dose screen, 48 h (100 = growth as untreated, 0 = no growth, -100 = all killed)
Details: 10 µM unless noted
Procedure: Growth inhibition of the NCI-H23 human Non-Small Cell Lung tumor cell line is measured as a screen for anti-cancer activity. Cells are grown in 96 well plates and exposed to the test compound for 48 hours. Compounds are tested at a single concentration, which is 10^-5 M for most compounds. The reported endpoint is percent growth (GI% or GIPRCNT), where numbers from 0 - 100% represent growth inhibition, and numbers from -100% - 0 represent cell death. […]
The panel holds about 83,000 compounds, 20% with a hit somewhere; the sample as a whole holds those more often.
value.type: growth (%)

>>> measured_number("O=C1c2ccccc2C(=O)c2c1oc1c2c(=O)[nH]c2ccccc21")
66
>>> measured_number("c1ccc2nc(N3CCOCC3)c(N3CCCCC3)nc2c1")
95.6
>>> measured_number("O=[N+]([O-])c1ccc(Oc2ccc(-c3ccccc3)cc2)cc1")
85.3
>>> measured_number("Cc1nc2sc(C(=O)Nc3ccccc3)c(N)c2cc1C(C)O (centres undefined)")
39
>>> measured_number("O=c1c2ccccc2n(CC(O)CN2CCCC2)c2c(Br)cccc12 (centres undefined)")
131
>>> measured_number("OCCNc1nc(NCCO)nc(Nc2ccc(C3=NN(c4cc(Cl)cc(Cl)c4)C(c4ccc(C(F)(F)F)cc4)C3)cc2)n1 (centres undefined)")
56.6
>>> measured_number("CCSc1nc(Cl)c(C#N)c(-c2ccc(F)cc2)n1")
95.6
>>> measured_number("O=C(Nc1ccccc1)NS(=O)(=O)c1c[nH]c(=S)[nH]c1=O")
92.3
>>> measured_number("C#C[C@@]1(O)[C@@H](CO)O[C@@H](n2cc(Br)c3c(N)ncnc32)[C@@H]1O")
2.83
>>> measured_number("N#Cc1nc(-c2ccccc2)oc1S(=O)(=O)NCC(c1ccc(Cl)cc1)N1CCCCC1 (centres undefined)")
78.5
>>> measured_number("C=C1C(=O)O[C@H]2[C@H]1CC/C(COC(=O)CCCCCCCCC(=O)OC/C1=C/CC[C@@]3(C)O[C@H]3[C@H]3OC(=O)C(=C)[C@@H]3CC1)=C\\CC[C@@]1(C)O[C@@H]21")
-37.5
>>> measured_number("COc1c(O)cc2oc3cc(O[C@@H]4OC(C)[C@@H](O)[C@H](O)C4O)c(CC=C(C)C)c(O)c3c(=O)c2c1CC=C(C)C (some centres undefined)")
89.4
>>> measured_number("O=c1nc(-c2ccccc2)c2cc(-c3ccc(N4CCCC4)nc3)ccc2[nH]1")
73.1
>>> measured_number("Nc1c(C(=O)Nc2cccc3ccccc23)sc2nc3c(cc12)CCCCCC3")
47.8
>>> measured_number("C[C@]12CC[C@@H]3c4ccc(O)cc4CC[C@H]3[C@@H]1C[C@H](O)C2")
100
>>> measured_number("COc1cc(-c2csc(NC(=O)Nc3ccc(Cl)cc3)n2)cc(OC)c1OC")
11.3
>>> measured_number("COc1ccc2nc3nc4ccc[nH]c4cc3c2c1")
73.9
>>> measured_number("COc1cc(/C=C/C(=O)c2cccs2)ccc1OCc1ccc(Cl)nc1")
77.5
>>> measured_number("Cc1ccc(C2=N[C@H]3CCC[C@@H]3N(c3ccccc3)C(C(Cl)Cl)=N2)cc1")
95.5
>>> measured_number("CCOC(=O)c1sc(/N=C2\\NC(=O)/C(=C/c3ccc(N4CCN(C)CC4)cc3)S2)nc1C")
99.3
>>> measured_number("CCc1n(Cc2ccc3ccccc3c2)c2ccccc2[n+]1Cc1ccc2ccccc2c1")
28.8
>>> measured_number("COc1cc(C2=NN(C=O)C(c3cccc(Nc4ccnc5cc(C(F)(F)F)ccc45)c3)C2)cc(OC)c1OC (centres undefined)")
59.9
>>> measured_number("CCCNc1nc(C)[nH]c(=O)c1S")
102
>>> measured_number("CCOC(=O)/C(=C/c1c(-c2ccccc2)[nH]c2ccccc12)C(=O)c1ccc(Cl)cc1")
55
>>> measured_number("CCC[S@](=O)c1ccc2nc(NC(=O)OC)[nH]c2c1")
98.2
>>> measured_number("COC(=O)/C=C/c1cc(OC)c2c(c1)[C@@H](C(=O)OC)[C@H](c1ccc(OC)c(OC)c1)O2")
38.9
>>> measured_number("COC1=CC=CC2(OC)C3(O)CCCc4cccc(c43)N3C(=O)COC132 (centres undefined)")
96.1
>>> measured_number("CCOC(=O)c1cnn(-c2nc(-c3ccc(F)cc3)c(C#N)c(N3CCOCC3)n2)c1N")
103
>>> measured_number("CC1CCN(CCCCCOc2ccc3oc4cc(Cl)ccc4c(=O)c3c2)CC1")
87.7
>>> measured_number("C=C1C(=O)O[C@H]2[C@H]1CC/C(C=Nc1c(N)cc(C(F)(F)F)cc1Br)=C\\CC[C@@]1(C)O[C@@H]21")
30
>>> measured_number("COc1ccc(-c2nc(C#N)c(NCC(c3ccc(Cl)cc3)N3CCCCC3)o2)cc1 (centres undefined)")
91.7
>>> measured_number("Cn1cc(-c2ccc3c(c2)ncn3-c2ccc(CC(=O)Nc3cc(C(C)(C)C)on3)cc2)cn1")
30.2
>>> measured_number("CN1CCN(CC#CCOC(=O)CNC(=O)[C@]23CCC(C)(C)C[C@H]2C2=CC[C@@H]4[C@@]5(C)CC[C@H](O)C(C)(C)[C@@H]5CC[C@@]4(C)[C@]2(C)CC3)CC1")
94.2
>>> measured_number("COc1ccc2nc(-c3ccc(OC)c(OC)c3)cc(-c3nnc(SCC(=O)Nc4ccc(/C(C)=N\\O)cc4)n3-c3ccccc3)c2c1")
91.5
>>> measured_number("COc1ccc(NC(=O)Nc2ccc(Nc3nc(C)cc(Nc4ccc(C)cc4)n3)cc2)cc1")
-57.2
>>> measured_number("COc1cccc(NC(=O)Nc2ccc(Oc3ncnc4[nH]c(C)c(C)c34)cc2)c1")
70.7
>>> measured_number("Cc1cccc(C)c1NC(=O)CN(CC(C)C)CC(O)COc1ccccc1 (centres undefined)")
86
>>> measured_number("NC(=N\\N=C\\c1ccccc1O)/C(N)=N/N=C/c1ccccc1O")
90.9
>>> measured_number("CN(C)CSc1nc2ccccc2s1")
92.9
